- System: HPPD polypeptides (wild-type SEQ ID NO:1 and mutants)
- Reported Conditions: total change in signal in presence of 50 μM Cmpd. 1, normalised to that without inhibitor; low substrate concentration
Reported Metric: Residual turnover (%)

1) 48 (protein, mutant HPPD polypeptide) MADLYENPMGLMGFEFIEFASPTPGTLEPIFEIMGFTKVATHRSKNVHLYRQGEINLILNNEPNSIASYFAAEHGPSVCGMAFRVKDSQKAYNRALELGAQPIHIDTGPMELNLPAIKGIGGAPLYLIDRFGEGSSIYDIDFVYLEGVERNPVGAGLKVIDHLTHNVYRGRMVYWANFYEKLFNFREARYFDIKGEYTGLTSKAMSAPDGMIRIPLNEESSKGAGQIEEFLMQFNGEGIQHVAFLTDDLVKTWDALKKIGMRFMTAPGDEYYEMLEGRLPDHGEPVDQLQARGILLDGSSVEGDKRLLLQIFSETLMGPVFFEFIQRKGDHGFGPDSFKVLFESVERDQVRRGVLTAD ... 74
